- assay summary: Approximate solubility of TPA023B Phosphate in solvents (stepwise solvent addition)
- Assay type: physicochemical
- condition context: organic solvent or mixture, thermodynamic from solid; Toluene, RT
- Procedure: The total amount of solvent was recorded to calculate the approximate solubility in these solvents.
readout type: solubility

compound	result
CC(C)(O)c1cnn2c(-c3ccc(F)c(-c4c(F)cccc4C#N)c3)cnc2n1.O=P(O)(O)O [Phosphate Polymorphic Form A]	< 2 mg/mL

---

- assay summary: Approximate solubility of TPA023B in organic solvents
- Assay type: physicochemical
- condition context: 25 °C, organic solvent or mixture, thermodynamic from solid; DMF, RT
readout type: solubility at 4 h

compound	readout type	result
CC(C)(O)c1cnn2c(-c3ccc(F)c(-c4c(F)cccc4C#N)c3)cnc2n1 [TPA023B]	solubility at 4 h	> 50 mg/mL

---

- assay summary: Approximate solubility of TPA023B Phosphate in solvents (stepwise solvent addition)
- Assay type: physicochemical
- condition context: organic solvent or mixture, thermodynamic from solid; 1,4-Dioxane, RT
readout type: solubility

compound	readout type	result
CC(C)(O)c1cnn2c(-c3ccc(F)c(-c4c(F)cccc4C#N)c3)cnc2n1.O=P(O)(O)O [Phosphate Polymorphic Form A]	solubility	20 to 25 mg/mL

---

- assay summary: Approximate solubility of TPA023B Phosphate in solvents (stepwise solvent addition)
- Type: physicochemical
- condition context: organic solvent or mixture, thermodynamic from solid; MEK, 50° C.
readout type: solubility

compound	result
CC(C)(O)c1cnn2c(-c3ccc(F)c(-c4c(F)cccc4C#N)c3)cnc2n1.O=P(O)(O)O [Phosphate Polymorphic Form A]	< 10000 µg/mL

---

- assay summary: Pharmacokinetics in rats
- Type: in vivo, Sprague-dawley rats
- condition context: male, Sprague-Dawley, plasma; rat, PO 2 mg/kg, mean

compound	units symbol	half-life
CC(C)(O)c1cnn2c(-c3ccc(F)c(-c4c(F)cccc4C#N)c3)cnc2n1.O=P(O)(O)O [Phosphate Polymorphic Form A]	h	11.1

---

- assay summary: Pharmacokinetics in rats
- Assay type: in vivo, Sprague-dawley rats
- condition context: male, Sprague-Dawley, plasma; rat, IV 1 mg/kg, mean
readout type: AUC(0-t) (ng·h/mL)

compound	numeric readout
CC(C)(O)c1cnn2c(-c3ccc(F)c(-c4c(F)cccc4C#N)c3)cnc2n1.O=P(O)(O)O [Phosphate Polymorphic Form A]	11300

---

- assay summary: Approximate solubility of TPA023B Phosphate in solvents (stepwise solvent addition)
- Format: physicochemical
- condition context: aqueous with cosolvent or surfactant or cyclodextrin, thermodynamic from solid; Acetone/H2O (1/1, v/v), RT

compound	solubility
CC(C)(O)c1cnn2c(-c3ccc(F)c(-c4c(F)cccc4C#N)c3)cnc2n1.O=P(O)(O)O [Phosphate Polymorphic Form A]	< 2000 µg/mL

---

- assay summary: Approximate solubility of TPA023B in organic solvents
- Assay type: physicochemical
- condition context: organic solvent or mixture, thermodynamic from solid; Methanol, 50° C.
readout type: solubility

compound	result
CC(C)(O)c1cnn2c(-c3ccc(F)c(-c4c(F)cccc4C#N)c3)cnc2n1 [TPA023B]	< 50 mg/mL

---

- assay summary: Approximate solubility of TPA023B Phosphate in solvents (stepwise solvent addition)
- Format: physicochemical
- condition context: aqueous with cosolvent or surfactant or cyclodextrin, thermodynamic from solid; EtOH/H2O (1/1, v/v), 50° C.

compound	solubility
CC(C)(O)c1cnn2c(-c3ccc(F)c(-c4c(F)cccc4C#N)c3)cnc2n1.O=P(O)(O)O [Phosphate Polymorphic Form A]	< 2000 µg/mL

---

- assay summary: Canine pharmacokinetics
- Assay type: in vivo, Beagle dogs
- condition context: male, beagle, plasma; dog, PO 2 mg/kg, mean

compound	bioavailability [%]
CC(C)(O)c1cnn2c(-c3ccc(F)c(-c4c(F)cccc4C#N)c3)cnc2n1.O=P(O)(O)O [Phosphate Polymorphic Form A]	74.7

---

- assay summary: Approximate solubility of TPA023B Phosphate in solvents (stepwise solvent addition)
- Format: physicochemical
- condition context: organic solvent or mixture, thermodynamic from solid; Isopropanol, 50° C.

compound	solubility
CC(C)(O)c1cnn2c(-c3ccc(F)c(-c4c(F)cccc4C#N)c3)cnc2n1.O=P(O)(O)O [Phosphate Polymorphic Form A]	10 to 50 mg/mL

---

- assay summary: Approximate solubility of TPA023B in organic solvents
- Type: physicochemical
- condition context: organic solvent or mixture, thermodynamic from solid; Isopropanol, 50° C.
- Description: About 25 mg of compound (TPA023B) was added to a 2.0 mL vial containing 0.5 mL of each organic solvent in Table 14, which was then sealed. The mixtures were stirred-mixed at 800 rpm, RT (25° C.) for 4 hours. After that, if the compound was not completely dissolved in the solvent, the mixture was then stirred-mixed at 800 rpm, 50° C. overnight. If the final mixture was clear solution, the solution would be evaporated by vacuum drying oven at 35° C. and the resulted solid would be checked by XRPD. […]

compound	solubility
CC(C)(O)c1cnn2c(-c3ccc(F)c(-c4c(F)cccc4C#N)c3)cnc2n1 [TPA023B]	< 50 mg/mL

---

- assay summary: Approximate solubility of TPA023B in organic solvents
- Format: physicochemical
- condition context: organic solvent or mixture, thermodynamic from solid; MTBE, 50° C.

compound	solubility
CC(C)(O)c1cnn2c(-c3ccc(F)c(-c4c(F)cccc4C#N)c3)cnc2n1 [TPA023B]	< 50 mg/mL

---

compounds and their reported solubility at 24 h
- assay summary: Solubility in aqueous buffers and simulated fluids, 24 h, HPLC
- Type: physicochemical
- condition context: 22.5 °C, simulated gastric fluid, thermodynamic from solid; pH 1.2 Hydrochloric Acid Buffer (50 mM), initial pH 1.17; ~20-25° C., ~24 h; read-out: Measured Conc. (solubility)

compound	units symbol	solubility at 24 h
CC(C)(O)c1cnn2c(-c3ccc(F)c(-c4c(F)cccc4C#N)c3)cnc2n1 [Free Base Polymorphic Form A]	µg/mL	9.77
CC(C)(O)c1cnn2c(-c3ccc(F)c(-c4c(F)cccc4C#N)c3)cnc2n1.O=P(O)(O)O [Phosphate Polymorphic Form A]	µg/mL	22.9

---

- assay summary: Approximate solubility of TPA023B Phosphate in solvents (stepwise solvent addition)
- Format: physicochemical
- condition context: organic solvent or mixture, thermodynamic from solid; Methanol, RT

compound	solubility
CC(C)(O)c1cnn2c(-c3ccc(F)c(-c4c(F)cccc4C#N)c3)cnc2n1.O=P(O)(O)O [Phosphate Polymorphic Form A]	8000 to 10000 µg/mL

---

- assay summary: Approximate solubility of TPA023B Phosphate in solvents (stepwise solvent addition)
- Format: physicochemical
- condition context: organic solvent or mixture, thermodynamic from solid; Toluene, 50° C.

compound	solubility
CC(C)(O)c1cnn2c(-c3ccc(F)c(-c4c(F)cccc4C#N)c3)cnc2n1.O=P(O)(O)O [Phosphate Polymorphic Form A]	< 2000 µg/mL

---

- assay summary: Approximate solubility of TPA023B in organic solvents
- Format: physicochemical
- condition context: organic solvent or mixture, thermodynamic from solid; DCM, 50° C.

compound	solubility
CC(C)(O)c1cnn2c(-c3ccc(F)c(-c4c(F)cccc4C#N)c3)cnc2n1 [TPA023B]	< 50 mg/mL

---

- assay summary: Approximate solubility of TPA023B Phosphate in solvents (stepwise solvent addition)
- Assay type: physicochemical
- condition context: organic solvent or mixture, thermodynamic from solid; DMF, RT
readout type: solubility

molecule	result
CC(C)(O)c1cnn2c(-c3ccc(F)c(-c4c(F)cccc4C#N)c3)cnc2n1.O=P(O)(O)O [Phosphate Polymorphic Form A]	> 100 mg/mL

---

- assay summary: Approximate solubility of TPA023B Phosphate in solvents (stepwise solvent addition)
- Assay type: physicochemical
- condition context: organic solvent or mixture, thermodynamic from solid; Ethanol, 50° C.

compound	solubility
CC(C)(O)c1cnn2c(-c3ccc(F)c(-c4c(F)cccc4C#N)c3)cnc2n1.O=P(O)(O)O [Phosphate Polymorphic Form A]	10 to 50 mg/mL

---

- assay summary: Canine pharmacokinetics
- Type: in vivo, Beagle dogs
- condition context: male, beagle, plasma; dog, IV 1 mg/kg, mean; read-out: Vdss
readout type: Vd (L/kg)

compound	numeric readout
CC(C)(O)c1cnn2c(-c3ccc(F)c(-c4c(F)cccc4C#N)c3)cnc2n1.O=P(O)(O)O [Phosphate Polymorphic Form A]	1.93

---

- assay summary: Canine pharmacokinetics
- Assay type: in vivo, Beagle dogs
- condition context: male, beagle, plasma; dog, IV 1 mg/kg, mean

molecule	half-life
CC(C)(O)c1cnn2c(-c3ccc(F)c(-c4c(F)cccc4C#N)c3)cnc2n1.O=P(O)(O)O [Phosphate Polymorphic Form A]	12.8 h

---

- assay summary: Pharmacokinetics in rats
- Assay type: in vivo, Sprague-dawley rats
- condition context: male, Sprague-Dawley, plasma; rat, PO 2 mg/kg, mean

compound	units symbol	AUC(0-t)
CC(C)(O)c1cnn2c(-c3ccc(F)c(-c4c(F)cccc4C#N)c3)cnc2n1.O=P(O)(O)O [Phosphate Polymorphic Form A]	ng·h/mL	15000

---

- assay summary: Pharmacokinetics in rats
- Format: in vivo, Sprague-dawley rats
- condition context: male, Sprague-Dawley, plasma; rat, IV 1 mg/kg, mean; read-out: Vdss
readout type: Vd (L/kg)

compound	readout type	units symbol	numeric readout
CC(C)(O)c1cnn2c(-c3ccc(F)c(-c4c(F)cccc4C#N)c3)cnc2n1.O=P(O)(O)O [Phosphate Polymorphic Form A]	Vd	L/kg	1.49
